ASSAY DETAILS: Thermodynamic solubility of compound in phosphate buffer at 6 pH by shake flask method
Assay type: physicochemical
REPORTED CONDITIONS: pH 6, read-out: Therm_solubility
PROPERTY NAME: solubility thermodynamic (µg/mL)
Respond with the bare value in µg/mL.

Inquiry: Using the record for CCN(CC)CCNC(=O)c1c(C)[nH]c(/C=C2\C(=O)Nc3ccc(F)cc32)c1C (mixture of isomers) , report its solubility thermodynamic.
Reply text: 350

Every entry's value here was drawn from ChEMBL document CHEMBL4765490.
